Measured MIC90 values are reported for all entries that follow.
# Test system: Candida albicans
# ASSAY_EXPLANATION: Antifungal activity against Candida albicans isolate NCL1 after 48 hrs by broth dilution method
# Assay type: functional
# CONDITION_SET: isolate NCL1, 48 h
Kindly answer with a numeric value in µg/mL, unit omitted.

Per the records, this compound ( C[C@]12CC[C@H](O)C[C@@H]1CC[C@@H]1[C@@H]2CC[C@@]2(C)[C@H]1CC[C@@H]2[C@@](C)(O)c1nccs1 ) has MIC90 equal to 64

The recorded MIC90 for C[C@]12CC[C@H]3[C@@H](CC=C4C[C@@H](O)CC[C@@]43C)[C@@H]1CC[C@@H]2[C@@](C)(O)c1nccs1 is 16

###

# Tested on: Fusarium oxysporum
# ASSAY_EXPLANATION: Antifungal activity against Fusarium oxysporum isolate NCL5 after 48 hrs by broth dilution method
# Assay type: functional
# CONDITION_SET: isolate NCL5, 48 h
ATTRIBUTE_MEASURED: MIC90 (µg/mL)
// units = µg/mL; emit number, no label

> print(dat)
                                 mol.smiles  unit.string  number
1  C[C@]12CC[C@H]3[C@@H](CC=C4C[C@@H](O)CC[C@@]43C)[C@@H]1CC[C@@H]2[C@@](C)(O)c1ccccn1        µg/mL      16
2  CC(=O)O[C@H]1CC[C@@]2(C)C(=CC[C@H]3[C@@H]4CC[C@H]([C@@](C)(O)c5nccs5)[C@@]4(C)CC[C@@H]32)C1        µg/mL      64
3  CC(=O)[C@H]1[C@H](c2ccccn2)C[C@H]2[C@@H]3CC=C4C[C@@H](OS(C)(C)C(C)(C)C)CC[C@]4(C)[C@H]3CC[C@@]21C        µg/mL      64
4  CC(C)(C)[Si](C)(C)O[C@H]1CC[C@@]2(C)[C@@H](CC[C@@H]3[C@@H]2CC[C@@]2(C)[C@H]3CC[C@@H]2[C@@](C)(O)c2nccs2)C1        µg/mL      64

--- query ---
Response field MIC90 (Fusarium oxysporum) for item CC(=O)[C@H]1[C@H](c2ccccn2)C[C@H]2[C@@H]3CC=C4C[C@@H](O)CC[C@]4(C)[C@H]3CC[C@@]21C : 64

###

# Tested on: Candida albicans
# ASSAY_EXPLANATION: Antifungal activity against Candida albicans isolate NCL1 after 48 hrs by broth dilution method
# Format: functional
# CONDITION_SET: isolate NCL1, 48 h
Reported MIC90 values are given for each entry in this list.
Express your answer in µg/mL, writing the number without its unit.

> print(dat)
                                 mol.smiles  attribute.measured  number
1  CC(C)(C)[Si](C)(C)O[C@H]1CC[C@@]2(C)[C@@H](CC[C@@H]3[C@@H]2CC[C@@]2(C)[C@H]3CC[C@@H]2[C@@](C)(O)c2ccccn2)C1               MIC90      32
2  CC(=O)O[C@H]1CC[C@@]2(C)[C@@H](CC[C@@H]3[C@@H]2CC[C@@]2(C)[C@H]3CC[C@@H]2[C@@](C)(O)c2nccs2)C1               MIC90       8

Here's the next entry for you.
Observed MIC90, Candida albicans, CC(=O)[C@H]1[C@H](c2ccccn2)C[C@H]2[C@@H]3CC=C4C[C@@H](O)CC[C@]4(C)[C@H]3CC[C@@]21C : 32

###

# Tested on: Benjaminiella poitrasii
# ASSAY_EXPLANATION: Antifungal activity against Benjaminiella poitrasii isolate NCL3 after 24 hrs by M38-P broth dilution method
# Format: functional
# CONDITION_SET: isolate NCL3, 24 h
ATTRIBUTE_MEASURED: MIC90 (µg/mL)
Dear colleague, please return just the value in µg/mL, with no unit written.

# example entries with known answers
> print(dat)
                                 mol.smiles  unit.string  number
1  C[C@]12CC[C@H]3[C@@H](CC=C4C[C@@H](O)CC[C@@]43C)[C@@H]1CC[C@@H]2[C@@](C)(O)c1ccccn1        µg/mL      32
2  CC(=O)O[C@H]1CC[C@@]2(C)[C@@H](CC[C@@H]3[C@@H]2CC[C@@]2(C)[C@H]3CC[C@@H]2[C@@](C)(O)c2ccccn2)C1        µg/mL      16

Please look at the following compound next.
Entry CC(C)(C)[Si](C)(C)O[C@H]1CC[C@@]2(C)[C@@H](CC[C@@H]3[C@@H]2CC[C@@]2(C)[C@H]3CC[C@@H]2[C@@](C)(O)c2ccccn2)C1 , MIC90 reported as 64

###

# Test system: Candida albicans
# ASSAY_EXPLANATION: Antifungal activity against Candida albicans isolate NCL1 after 48 hrs by broth dilution method
# Format: functional
# CONDITION_SET: isolate NCL1, 48 h
Each item that follows carries a reported MIC90.

> print(dat)
                                 mol.smiles      result
1  CC(=O)O[C@H]1CC[C@@]2(C)C(=CC[C@H]3[C@@H]4CC[C@H]([C@@](C)(O)c5ccccn5)[C@@]4(C)CC[C@@H]32)C1  > 64 µg/mL
2  CC(C)(C)[Si](C)(C)O[C@H]1CC[C@@]2(C)[C@@H](CC[C@@H]3[C@@H]2CC[C@@]2(C)[C@H]3CC[C@@H]2[C@@](C)(O)c2nccs2)C1  > 64 µg/mL

MIC90 measured on CC(C)(C)[Si](C)(C)O[C@H]1CC[C@@]2(C)C(=CC[C@H]3[C@@H]4CC[C@H]([C@@](C)(O)c5ccccn5)[C@@]4(C)CC[C@@H]32)C1 = 16 µg/mL

###

Recorded MIC90, one value per entry.
# Tested on: Benjaminiella poitrasii
# ASSAY_EXPLANATION: Antifungal activity against Benjaminiella poitrasii isolate NCL3 after 24 hrs by M38-P broth dilution method
# Type: functional
# CONDITION_SET: isolate NCL3, 24 h
The response must be a number in µg/mL with no trailing unit.

Examples with answers:
MOL_SMILES	MIC90, µg/mL
C[C@@H]1[C@H](O)[C@@H](C)/C=C/C=C/C=C/C=C/C=C/C=C/C=C/[C@H](O[C@@H]2O[C@H](C)[C@@H](O)[C@H](N)[C@@H]2O)C[C@@H]2O[C@](O)(C[C@@H](O)C[C@@H](O)[C@H](O)CC[C@@H](O)C[C@@H](O)CC(=O)O[C@H]1C)C[C@H](O)[C@H]2C(=O)O	16
CC(=O)O[C@H]1CC[C@@]2(C)C(=CC[C@H]3[C@@H]4C[C@@H](c5ccccn5)[C@H](C(C)=O)[C@@]4(C)CC[C@@H]32)C1	64
CC(=O)O[C@H]1CC[C@@]2(C)C(=CC[C@H]3[C@@H]4CC[C@H]([C@@](C)(O)c5ccccn5)[C@@]4(C)CC[C@@H]32)C1	32
CC(=O)O[C@H]1CC[C@@]2(C)C(=CC[C@H]3[C@@H]4CC[C@H]([C@@](C)(O)c5nccs5)[C@@]4(C)CC[C@@H]32)C1	32
CC(=O)[C@H]1[C@H](c2ccccn2)C[C@H]2[C@@H]3CC=C4C[C@@H](OS(C)(C)C(C)(C)C)CC[C@]4(C)[C@H]3CC[C@@]21C	64

Now examine the next entry.
Summary: CC(=O)[C@H]1[C@H](c2ccccn2)C[C@H]2[C@@H]3CC=C4C[C@@H](O)CC[C@]4(C)[C@H]3CC[C@@]21C , Benjaminiella poitrasii, MIC90 = 32

###

# Tested on: Escherichia coli
# ASSAY_EXPLANATION: Antibacterial activity against Escherichia coli NCIM 2574 after 24 hrs by NCCLS method
# Assay type: functional
# CONDITION_SET: NCIM 2574, 24 h
ATTRIBUTE_MEASURED: MIC90 (mg/L)
Express the result in mg/L but write the number alone.

These solved cases illustrate the format of a correct answer.
MOL_SMILES	MIC90 (mg/L)
C[C@]12CC[C@H]3[C@@H](CC=C4C[C@@H](O)CC[C@@]43C)[C@@H]1CC[C@@H]2[C@@](C)(O)c1nccs1	8
CC(C)(C)[Si](C)(C)O[C@H]1CC[C@@]2(C)C(=CC[C@H]3[C@@H]4CC[C@H]([C@@](C)(O)c5ccccn5)[C@@]4(C)CC[C@@H]32)C1	16
CC(=O)O[C@H]1CC[C@@]2(C)C(=CC[C@H]3[C@@H]4C[C@@H](c5ccccn5)[C@H](C(C)=O)[C@@]4(C)CC[C@@H]32)C1	16

For the next question, use this molecule.
Memo: CC(=O)O[C@H]1CC[C@@]2(C)C(=CC[C@H]3[C@@H]4CC[C@H]([C@@](C)(O)c5ccccn5)[C@@]4(C)CC[C@@H]32)C1 , reported MIC90: 8
